Biological target: soluble form of SEP (Mus musculus, UniProt Q9JLI3)
Construct: partially purified the soluble form of SEP from the conditioned medium of CHO/SEP cells; made in house; host or cells: CHO-K1 cells, transient transfection; conditioned medium partially purified on a wheat germ lectin column
Sequence (Q9JLI3 63-765 limits assumed): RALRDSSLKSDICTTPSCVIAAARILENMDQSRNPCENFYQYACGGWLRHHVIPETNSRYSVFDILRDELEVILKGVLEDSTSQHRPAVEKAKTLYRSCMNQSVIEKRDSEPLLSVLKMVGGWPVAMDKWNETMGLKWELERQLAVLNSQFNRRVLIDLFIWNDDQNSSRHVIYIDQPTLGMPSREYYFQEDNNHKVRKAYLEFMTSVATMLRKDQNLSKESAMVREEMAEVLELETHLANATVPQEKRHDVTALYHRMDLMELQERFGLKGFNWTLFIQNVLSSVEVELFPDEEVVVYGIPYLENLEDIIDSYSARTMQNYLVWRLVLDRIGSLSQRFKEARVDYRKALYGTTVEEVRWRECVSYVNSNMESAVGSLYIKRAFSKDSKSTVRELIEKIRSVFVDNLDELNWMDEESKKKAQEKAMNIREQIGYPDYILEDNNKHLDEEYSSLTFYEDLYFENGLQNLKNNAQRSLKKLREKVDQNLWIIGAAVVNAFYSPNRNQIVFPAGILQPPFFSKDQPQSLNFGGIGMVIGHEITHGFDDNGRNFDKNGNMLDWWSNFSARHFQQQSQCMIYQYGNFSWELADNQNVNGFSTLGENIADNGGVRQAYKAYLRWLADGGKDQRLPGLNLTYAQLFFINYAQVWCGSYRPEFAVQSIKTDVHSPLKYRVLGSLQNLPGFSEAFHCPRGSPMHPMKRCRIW
Assay: Inhibition of ET-1 degrading activity of recombinant soluble SEP
Assay type: biochemical
Conditions: Inhibitor 100 μM; SEP partially purified from conditioned medium of CHO/SEP cells; no inhibitor = 100; unit assumed
Classification field: enter label 1 for SEP activity values not below 40%, label 0 for values below it.

Req: Textbook exercise: given the entry O=C(O)CNC(=O)C(CS)Cc1ccccc1 (centres unmarked) [Thiorphan] , state whether its SEP activity is greater than or equal to 40%.
Resp: label 0

Req: Given CC(C)C[C@H](NP(=O)(O)O[C@@H]1O[C@@H](C)[C@H](O)[C@@H](O)[C@H]1O)C(=O)N[C@@H](Cc1c[nH]c2ccccc12)C(=O)O [Phosphoramidon] , state whether its SEP activity is at least 40%.
Resp: label 0

Req: Does the compound C[C@H](CS)C(=O)N1CCC[C@H]1C(=O)O [Captopril, captopril] have recorded SEP activity that is 40% or more?
Resp: label 1

Req: Is the recorded value of SEP activity equal to or greater than 40% for this compound? COc1c2c(c(O)c3c1C(O)Cc1cc(CC(C)O)c(C(=O)O)c(O)c1-3)C(=O)c1cccc(O)c1C2=O (centres unmarked) [FR901533]
Resp: label 0

Req: hey, is SEP activity for this one >= 40%? c1cnc2c(c1)ccc1cccnc12 [1,10-Phenanthroline, 1,10-phenanthroline]
Resp: label 0

====

biological target: soluble form of SEP (Mus musculus, UniProt Q9JLI3); construct: partially purified the soluble form of SEP from the conditioned medium of CHO/SEP cells; conditioned medium partially purified on a wheat germ lectin column; experiment: Inhibition of ET-1 degrading activity of recombinant soluble SEP; details: soluble form of SEP, ET-1 degrading activity, dose-dependent; read-out: apparent IC50, inhibition of SEP activity
Consider the following molecules; for each one, report its IC50.

// O=C(O)CNC(=O)C(CS)Cc1ccccc1 (centres unmarked) : IC50 value = ~2 µM

IC50 in this record for CC(C)C[C@H](NP(=O)(O)O[C@@H]1O[C@@H](C)[C@H](O)[C@@H](O)[C@H]1O)C(=O)N[C@@H](Cc1c[nH]c2ccccc12)C(=O)O : ~0.006 µM

Data provenance is patent US6548284B1.
